Values were extracted from patent US8513289B2.

- Tested on: hWB
- test: IC50 hWB (TNF-α release assay)
- Format: cell-based
- condition-notes: Homo sapiens
Item-by-item account of pIC50
Reminder that pIC50 is minus the log10 of a molar concentration.

O=C(NCc1nnc(-c2ccc[nH]2)s1)c1cc(C(=O)c2c(F)cc(F)cc2F)c[nH]1 :: 5.90
COc1ccc(-c2nnc(CNC(=O)c3cc(C(=O)c4c(F)cc(F)cc4F)c[nH]3)s2)cn1 :: 5.55
O=C(NCc1nnc(-c2cnccn2)s1)c1cc(C(=O)c2c(F)cc(F)cc2F)c[nH]1 :: 6.09

Now look at this entry.
// query # returns recorded pIC50 (system: hWB) for "Cc1nnc(CNC(=O)c2cc(C(=O)c3c(F)cc(F)cc3F)c[nH]2)s1"
// result 6.33
